# Tested on: surinam grass
# protocol_text: Test B pre/postemergence surinam grass
# Assay type: in vivo, Brachiaria decumbens
# assay_setup: Preemergence, Rate 500 g/ha; scale 0 to 10, 0 is no effect, 10 is complete control

{"compound": "CC(C)N(C(=O)n1oc(=O)n(CCC[Si](C)(C)C)c1=O)c1ccc(F)cc1 [Compound 461]", "B. signalgrass plant response rating": 0}
{"compound": "C=CCCCn1c(=O)on(C(=O)N(c2ccc(F)cc2F)C(C)C)c1=O [Compound 516]", "B. signalgrass plant response rating": 10}
{"compound": "COCC(OC)n1c(=O)on(C(=O)N(c2ccc(F)cc2)C(C)C)c1=O (stereo not shown) [Compound 446]", "B. signalgrass plant response rating": 8}
{"compound": "CC(C)N(C(=O)n1oc(=O)n(CNC(=O)c2ccccc2)c1=O)c1ccc(F)cc1 [Compound 445]", "B. signalgrass plant response rating": 3}
